Study conditions: 348.15 K; 101.33 kPa; Liquid; Vibrating tube method
± gives the expanded uncertainty stated by the source.
Measurement name: mass density
Write your answer as a measured quantity: the number, then the unit.

CCCC[N+](C)(CCCC)CCCC.O=S(=O)([N-]S(=O)(=O)C(F)(F)F)C(F)(F)F [tributylmethylammonium bis((trifluoromethyl)sulfonyl)imide] : 1221.5 ± 1.1 kg/m3
CC[S+](C)CC.O=S(=O)([N-]S(=O)(=O)C(F)(F)F)C(F)(F)F [diethylmethylsulfonium bis[(trifluoromethyl)sulfonyl]imide] : 1454.5 ± 1.2 kg/m3
CCCC[N+](C)(C)C.O=S(=O)([N-]S(=O)(=O)C(F)(F)F)C(F)(F)F [butyltrimethylammonium bis(trifluoromethylsulfonyl)imide] : 1351 ± 1.1 kg/m3

Now consider the entry below.
// query State its mass density: CC[S+](CC)CC.O=S(=O)([N-]S(=O)(=O)C(F)(F)F)C(F)(F)F [triethylsulfonium bis((trifluoromethyl)sulfonyl)imide]
// result 1414.8 ± 1.1 kg/m3

----------
Study conditions: 303.15 K; 101.33 kPa; Liquid; Cone and plate viscometry
Measurement name: viscosity (mPa·s)
One number for each entry, in mPa·s.

Consider the worked cases shown below.
CC[S+](C)CC.O=S(=O)([N-]S(=O)(=O)C(F)(F)F)C(F)(F)F [diethylmethylsulfonium bis[(trifluoromethyl)sulfonyl]imide] : 34.1
CCCC[N+](C)(CCCC)CCCC.O=S(=O)([N-]S(=O)(=O)C(F)(F)F)C(F)(F)F [tributylmethylammonium bis((trifluoromethyl)sulfonyl)imide] : 369.3
CC[S+](CC)CC.O=S(=O)([N-]S(=O)(=O)C(F)(F)F)C(F)(F)F [triethylsulfonium bis((trifluoromethyl)sulfonyl)imide] : 28.2

Now consider the entry below.
// query State its viscosity: CCCC[N+](C)(C)C.O=S(=O)([N-]S(=O)(=O)C(F)(F)F)C(F)(F)F [butyltrimethylammonium bis(trifluoromethylsulfonyl)imide]
// result 82

----------
Experimental details: refractive index (Na D-line) (dimensionless)
Study conditions: 343.15 K; 101.33 kPa; Liquid; Standard Abbe refractometry
Measurement name: refractive index
Numbers only.

Consider the worked cases shown below.
CC[S+](CC)CC.O=S(=O)([N-]S(=O)(=O)C(F)(F)F)C(F)(F)F [triethylsulfonium bis((trifluoromethyl)sulfonyl)imide] : 1.41353
CCCC[N+](C)(C)C.O=S(=O)([N-]S(=O)(=O)C(F)(F)F)C(F)(F)F [butyltrimethylammonium bis(trifluoromethylsulfonyl)imide] : 1.39616
CCCC[N+](C)(CCCC)CCCC.O=S(=O)([N-]S(=O)(=O)C(F)(F)F)C(F)(F)F [tributylmethylammonium bis((trifluoromethyl)sulfonyl)imide] : 1.41324

Now consider the entry below.
// query State its refractive index: CC[S+](C)CC.O=S(=O)([N-]S(=O)(=O)C(F)(F)F)C(F)(F)F [diethylmethylsulfonium bis[(trifluoromethyl)sulfonyl]imide]
// result 1.41058

----------
Study conditions: 333.15 K; 101.33 kPa; Liquid; Cone and plate viscometry
Give viscosity for every item shown.
Answers are plain numbers, in mPa·s.

CCCC[N+](C)(C)C.O=S(=O)([N-]S(=O)(=O)C(F)(F)F)C(F)(F)F [butyltrimethylammonium bis(trifluoromethylsulfonyl)imide] : 25.7
CC[S+](CC)CC.O=S(=O)([N-]S(=O)(=O)C(F)(F)F)C(F)(F)F [triethylsulfonium bis((trifluoromethyl)sulfonyl)imide] : 11.8
CC[S+](C)CC.O=S(=O)([N-]S(=O)(=O)C(F)(F)F)C(F)(F)F [diethylmethylsulfonium bis[(trifluoromethyl)sulfonyl]imide] : 14

// query State its viscosity: CCCC[N+](C)(CCCC)CCCC.O=S(=O)([N-]S(=O)(=O)C(F)(F)F)C(F)(F)F [tributylmethylammonium bis((trifluoromethyl)sulfonyl)imide]
// result 64.1

----------
Study conditions: 313.15 K; 101.33 kPa; Liquid; Vibrating tube method
Give mass density for every item shown.
Give bare numbers, in kg/m3.

CC[S+](CC)CC.O=S(=O)([N-]S(=O)(=O)C(F)(F)F)C(F)(F)F [triethylsulfonium bis((trifluoromethyl)sulfonyl)imide] : 1447.6

Please give mass density for each item listed below.
1. CC[S+](C)CC.O=S(=O)([N-]S(=O)(=O)C(F)(F)F)C(F)(F)F [diethylmethylsulfonium bis[(trifluoromethyl)sulfonyl]imide]
2. CCCC[N+](C)(CCCC)CCCC.O=S(=O)([N-]S(=O)(=O)C(F)(F)F)C(F)(F)F [tributylmethylammonium bis((trifluoromethyl)sulfonyl)imide]

// result
1. 1487.6
2. 1249.9

// query State its mass density: CCCC[N+](C)(C)C.O=S(=O)([N-]S(=O)(=O)C(F)(F)F)C(F)(F)F [butyltrimethylammonium bis(trifluoromethylsulfonyl)imide]
// result 1381

----------
Give viscosity for every item shown.
Study conditions: 323.15 K; 101.33 kPa; Liquid; Cone and plate viscometry
Numbers only, in mPa·s.

Please give viscosity for each item listed below.
1. CCCC[N+](C)(C)C.O=S(=O)([N-]S(=O)(=O)C(F)(F)F)C(F)(F)F [butyltrimethylammonium bis(trifluoromethylsulfonyl)imide]
2. CCCC[N+](C)(CCCC)CCCC.O=S(=O)([N-]S(=O)(=O)C(F)(F)F)C(F)(F)F [tributylmethylammonium bis((trifluoromethyl)sulfonyl)imide]
3. CC[S+](CC)CC.O=S(=O)([N-]S(=O)(=O)C(F)(F)F)C(F)(F)F [triethylsulfonium bis((trifluoromethyl)sulfonyl)imide]
4. CC[S+](C)CC.O=S(=O)([N-]S(=O)(=O)C(F)(F)F)C(F)(F)F [diethylmethylsulfonium bis[(trifluoromethyl)sulfonyl]imide]

// result
1: 35.9; 2: 105.6; 3: 15.2; 4: 18.2

----------
Study conditions: 293.15 K; 101.33 kPa; Liquid; Vibrating tube method
Give mass density for every item shown.
One number for each entry, in kg/m3.

Consider the worked cases shown below.
CC[S+](CC)CC.O=S(=O)([N-]S(=O)(=O)C(F)(F)F)C(F)(F)F [triethylsulfonium bis((trifluoromethyl)sulfonyl)imide] : 1467.1
CCCC[N+](C)(CCCC)CCCC.O=S(=O)([N-]S(=O)(=O)C(F)(F)F)C(F)(F)F [tributylmethylammonium bis((trifluoromethyl)sulfonyl)imide] : 1267.3
CCCC[N+](C)(C)C.O=S(=O)([N-]S(=O)(=O)C(F)(F)F)C(F)(F)F [butyltrimethylammonium bis(trifluoromethylsulfonyl)imide] : 1398.7

Now consider the entry below.
// query State its mass density: CC[S+](C)CC.O=S(=O)([N-]S(=O)(=O)C(F)(F)F)C(F)(F)F [diethylmethylsulfonium bis[(trifluoromethyl)sulfonyl]imide]
// result 1507.2

----------
Study conditions: 288.15 K; 101.33 kPa; Liquid; Cone and plate viscometry
± gives the expanded uncertainty stated by the source.
Measurement name: viscosity
Write your answer as a measured quantity: the number, then the unit.

Consider the worked cases shown below.
CCCC[N+](C)(C)C.O=S(=O)([N-]S(=O)(=O)C(F)(F)F)C(F)(F)F [butyltrimethylammonium bis(trifluoromethylsulfonyl)imide] : 184.6 ± 5 mPa·s
CCCC[N+](C)(CCCC)CCCC.O=S(=O)([N-]S(=O)(=O)C(F)(F)F)C(F)(F)F [tributylmethylammonium bis((trifluoromethyl)sulfonyl)imide] : 1264 ± 83 mPa·s
CC[S+](CC)CC.O=S(=O)([N-]S(=O)(=O)C(F)(F)F)C(F)(F)F [triethylsulfonium bis((trifluoromethyl)sulfonyl)imide] : 51.1 ± 0.5 mPa·s

Now consider the entry below.
// query State its viscosity: CC[S+](C)CC.O=S(=O)([N-]S(=O)(=O)C(F)(F)F)C(F)(F)F [diethylmethylsulfonium bis[(trifluoromethyl)sulfonyl]imide]
// result 62.1 ± 0.6 mPa·s

----------
Study conditions: 283.15 K; 101.33 kPa; Liquid; Cone and plate viscometry
Give viscosity for every item shown.
Answers are plain numbers, in mPa·s.

Consider the worked cases shown below.
CCCC[N+](C)(C)C.O=S(=O)([N-]S(=O)(=O)C(F)(F)F)C(F)(F)F [butyltrimethylammonium bis(trifluoromethylsulfonyl)imide] : 254.2
CC[S+](C)CC.O=S(=O)([N-]S(=O)(=O)C(F)(F)F)C(F)(F)F [diethylmethylsulfonium bis[(trifluoromethyl)sulfonyl]imide] : 78.3
CCCC[N+](C)(CCCC)CCCC.O=S(=O)([N-]S(=O)(=O)C(F)(F)F)C(F)(F)F [tributylmethylammonium bis((trifluoromethyl)sulfonyl)imide] : 2049.8

// query State its viscosity: CC[S+](CC)CC.O=S(=O)([N-]S(=O)(=O)C(F)(F)F)C(F)(F)F [triethylsulfonium bis((trifluoromethyl)sulfonyl)imide]
// result 64.4

----------
Give mass density for every item shown.
Study conditions: 328.15 K; 101.33 kPa; Liquid; Vibrating tube method
Answers are plain numbers, in kg/m3.

Consider the worked cases shown below.
CCCC[N+](C)(C)C.O=S(=O)([N-]S(=O)(=O)C(F)(F)F)C(F)(F)F [butyltrimethylammonium bis(trifluoromethylsulfonyl)imide] : 1368
CCCC[N+](C)(CCCC)CCCC.O=S(=O)([N-]S(=O)(=O)C(F)(F)F)C(F)(F)F [tributylmethylammonium bis((trifluoromethyl)sulfonyl)imide] : 1237.6
CC[S+](C)CC.O=S(=O)([N-]S(=O)(=O)C(F)(F)F)C(F)(F)F [diethylmethylsulfonium bis[(trifluoromethyl)sulfonyl]imide] : 1473.2

Now consider the entry below.
// query State its mass density: CC[S+](CC)CC.O=S(=O)([N-]S(=O)(=O)C(F)(F)F)C(F)(F)F [triethylsulfonium bis((trifluoromethyl)sulfonyl)imide]
// result 1433.4
